system: mu opiate receptor (MOR); experiment: MOR agonist activity using [35S]GTPγS binding assay in striatal membranes; assay type: biochemical; conditions: Series C-2; 0.1 μM compound, relative to DAMGO
property_measured: % DAMGO (0.1 μM) (%)
Numeric answer only, unit % assumed.

compound	property_measured	test_result
CN1CCC2(CC1)OCCN2S(=O)(=O)c1ccc(S(C)(=O)=O)cc1 [Compound C0106M]	% DAMGO (0.1 μM)	102.5
O=C1CN(Cc2ccccc2)C2(CCN(C3CCCCC3)CC2)N1 [C0137M(P7)]	% DAMGO (0.1 μM)	95.6
COc1ccc(S(=O)(=O)N2CCSC23CCNCC3)cc1	% DAMGO (0.1 μM)	74.2
O=[N+]([O-])c1ccc(S(=O)(=O)N2CCC3(CC2)NCCCO3)cc1	% DAMGO (0.1 μM)	88.3
C=CCN1CCC2(CC1)OCCN2S(=O)(=O)c1ccc(OC)cc1 [Compound C0091M]	% DAMGO (0.1 μM)	118.1
C[C@@H](NC(=O)[C@@H](N)Cc1ccc(O)cc1)C(=O)NCC(=O)N(C)[C@@H](Cc1ccccc1)C(=O)NCCO [DAMGO, [D-Ala2, N-MePhe4, Gly-ol]-enkephalin, reference compound]	% DAMGO (0.1 μM)	100
COc1ccc(NC(=O)N2CCC3(CC2)NCCO3)cc1 [Compound C0151M-2]	% DAMGO (0.1 μM)	201.6

Now for another entry.
State its % DAMGO (0.1 μM): CC(=O)c1ccc(S(=O)(=O)N2CCC3(CC2)OCCN3S(C)(=O)=O)cc1
68.0

====

biological target: FLNA pentapeptide of SEQ ID NO: 1 (Bn-VAKGL) (Homo sapiens, UniProt P21333); experiment: FITC-NLX-based FLNA screening assay (inhibition of FITC-naloxone binding to Bn-VAKGL on streptavidin plates); settings: FLNA-binding compound 0.1 μM; 10 nM FITC-NLX; read-out: Percent Binding Inhibition
I would appreciate it if you labelled entries 1.0 when inhibition at 0.1 µM is 40% or higher, otherwise 0.0.

Examples from the recorded data:
                                   molecule  category_label
0  COc1c2c(cc3c1C(CC(O)CCc1ccccc1)N(C)CC3)OCO2 (centres unmarked) [Compound B0051]             0.0
1  CC1CN(CC(O)COc2ccc(Cl)cc2)CC(C)O1 (centres unmarked) [Compound A0047]             1.0
2  CCN1CCC2(CC1)OCCN2S(=O)(=O)c1ccc(OC)cc1 [Compound C0089M]             1.0
3  O=C1CNC2(CCN(CC3CC3)CC2)N1Cc1ccccc1 [Compound C0124M]             1.0
4  O=C1CNC2(CCN(S(=O)(=O)c3ccc(O)cc3)CC2)N1Cc1ccccc1 [Compound C0148M]             1.0

Now look at this entry.
Answer whether inhibition at 0.1 µM of COc1cc(S(=O)(=O)N2CCC3(CC2)OCCN3S(=O)(=O)c2cc(OC)c(OC)c(OC)c2)cc(OC)c1OC [Compound C0062] is greater than or equal to 40%.
1.0

====

tested on: mu opiate receptor (MOR); assay: MOR agonist activity using [35S]GTPγS binding assay in striatal membranes; type: biochemical; settings: Series C-2; 1 μM compound; [35S]GTPγS binding to Gαo, striatal membranes
property_measured: MOR agonist activity, percent [35S]GTPγS binding at the stated compound concentration
Please append the unit to your numeric answer.

>>> print(df.to_string())
                                   compound  test_result
0  CCc1ccc(S(=O)(=O)N2CCOC23CCN(CC2CC2)CC3)cc1 [Compound C0135M]       310.1%

State its MOR agonist activity, percent [35S]GTPγS binding at the stated compound concentration: COc1ccc(S(=O)(=O)N2CCOC23CCN(C(=O)OC(C)(C)C)CC3)cc1
242.6%

State its MOR agonist activity, percent [35S]GTPγS binding at the stated compound concentration: CC(=O)c1ccc(S(=O)(=O)N2CC(=O)NC23CCNCC3)cc1 [Compound C0086M]
265.3%

State its MOR agonist activity, percent [35S]GTPγS binding at the stated compound concentration: C=CCN1CCC2(CC1)OCCN2S(=O)(=O)c1ccc(OC)cc1 [Compound C0091M]
274.4%

State its MOR agonist activity, percent [35S]GTPγS binding at the stated compound concentration: CCCCN1CCC2(CC1)OCCN2S(=O)(=O)c1ccc(C(C)=O)cc1 [Compound C0101M]
274.3%

State its MOR agonist activity, percent [35S]GTPγS binding at the stated compound concentration: O=C1CN(Cc2ccccc2)C2(CCN(CC3CC3)CC2)N1 [Compound C0125M]
195.2%

State its MOR agonist activity, percent [35S]GTPγS binding at the stated compound concentration: O=[N+]([O-])c1ccc(S(=O)(=O)N2CCC3(CC2)NCCCO3)cc1
238.8%

State its MOR agonist activity, percent [35S]GTPγS binding at the stated compound concentration: CC(=O)c1ccc(S(=O)(=O)N2CCC3(CC2)OCCN3S(=O)(=O)c2ccc(C(C)=O)cc2)cc1
305.0%

State its MOR agonist activity, percent [35S]GTPγS binding at the stated compound concentration: COc1ccc(S(=O)(=O)N2CCOC23CCNCC3)cc1
313.9%

State its MOR agonist activity, percent [35S]GTPγS binding at the stated compound concentration: CC(=O)c1ccc(S(=O)(=O)N2CCOC23CCN(C)CC3)cc1 [Compound C0093M]
211.8%

State its MOR agonist activity, percent [35S]GTPγS binding at the stated compound concentration: CC(=O)c1ccc(S(=O)(=O)N2CC(CN(C)C)OC23CCN(CC2CC2)CC3)cc1 (centres unmarked) [Compound C0128M]
286.0%

State its MOR agonist activity, percent [35S]GTPγS binding at the stated compound concentration: O=[N+]([O-])c1ccc(S(=O)(=O)N2CCC3(CC2)NCCO3)cc1
308.3%
